Target: A. baumannii PBP1a (Acinetobacter baumannii, UniProt A0ABX6CK30)
Sequence (A0ABX6CK30 1-851): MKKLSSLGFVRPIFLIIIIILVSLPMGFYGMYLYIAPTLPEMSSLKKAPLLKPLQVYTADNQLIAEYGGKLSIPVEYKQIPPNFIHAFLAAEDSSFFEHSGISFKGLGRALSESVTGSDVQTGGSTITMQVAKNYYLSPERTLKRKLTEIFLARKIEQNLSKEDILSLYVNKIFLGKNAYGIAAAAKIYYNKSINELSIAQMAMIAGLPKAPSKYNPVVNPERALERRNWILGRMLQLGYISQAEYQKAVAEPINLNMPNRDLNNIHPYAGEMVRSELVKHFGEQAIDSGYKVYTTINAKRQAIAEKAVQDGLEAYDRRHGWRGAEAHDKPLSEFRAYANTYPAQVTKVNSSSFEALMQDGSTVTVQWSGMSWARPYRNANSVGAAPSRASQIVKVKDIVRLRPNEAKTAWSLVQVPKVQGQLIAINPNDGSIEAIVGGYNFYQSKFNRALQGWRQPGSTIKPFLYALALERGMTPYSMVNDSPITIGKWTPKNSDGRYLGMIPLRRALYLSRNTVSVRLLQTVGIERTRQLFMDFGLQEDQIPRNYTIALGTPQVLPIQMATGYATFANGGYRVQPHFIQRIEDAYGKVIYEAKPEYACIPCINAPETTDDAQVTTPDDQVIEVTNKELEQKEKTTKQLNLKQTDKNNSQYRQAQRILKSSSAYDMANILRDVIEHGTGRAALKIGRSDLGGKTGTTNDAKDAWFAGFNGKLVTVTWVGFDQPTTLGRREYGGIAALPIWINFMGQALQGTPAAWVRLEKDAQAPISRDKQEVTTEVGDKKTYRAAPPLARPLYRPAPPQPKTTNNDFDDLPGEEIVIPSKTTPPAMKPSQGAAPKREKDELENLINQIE
Experiment: Bocillin-FL competition binding via gel filtration, A. baumannii PBP1a
Conditions: competition binding assay using Bocillin-FL via gel filtration; read-out: A. baumannii PBP1a Potency
Method: Affinity to A. baumannii PBP1a and PBP2 was assessed a competitive equilibrium binding assay using Bocillin-FL as the reporter molecule. Enzyme was pre-incubated with increasing concentrations of inhibitors, prior to addition of Bocillin and further incubation for 15 minutes. PBP bound with Bocillin-FL was separated by gel filtration using 96-well Zeba Spin size exclusion plates, and the fluorescence measured. […]
pEC50: −log10 of the molar value.
QUANTITY_MEASURED: pEC50

Lab note: need pEC50 with A. baumannii PBP1a (Acinetobacter baumannii, UniProt A0ABX6CK30) for entry O=C(O)c1c(F)ccc2c1OB(O)[C@@H](NC(=O)[C@H](NC(=O)N1CCN(C3CCN(C(=O)Nc4c(F)ccc(O)c4F)CC3)C1=O)c1cc(F)c(O)c(O)c1Cl)C2 (single isomer, unassigned) , please look it up.
> 5.00

Lab note: need pEC50 with A. baumannii PBP1a (Acinetobacter baumannii, UniProt A0ABX6CK30) for entry O=C(O)c1c(F)ccc2c1OB(O)[C@@H](NC(=O)C(NC(=O)N1CCN(C3CCN(C(=O)c4cc(O)cc(O)c4)CC3)C(=O)C1=O)c1cc(F)c(O)c(O)c1Cl)C2 (stereo partly shown) , please look it up.
4.30 to 5.00

Lab note: need pEC50 with A. baumannii PBP1a (Acinetobacter baumannii, UniProt A0ABX6CK30) for entry "O=C(O)c1c(F)ccc2c1OB(O)[C@@H](NC(=O)[C@H](NC(=O)N1CCN(Cc3ccc(O)c(O)c3Cl)C(=O)C1=O)c1ccc(P(=O)(O)O)c(F)c1F)C2" , please look it up.
4.30 to 5.00

Lab note: need pEC50 with A. baumannii PBP1a (Acinetobacter baumannii, UniProt A0ABX6CK30) for entry O=C(NCCCN1CCN(C(=O)NC(C(=O)N[C@H]2Cc3ccc(F)c(C(=O)O)c3OB2O)c2cc(F)c(O)c(O)c2Cl)C(=O)C1=O)c1cccc(O)c1 (stereo partly shown) , please look it up.
4.30 to 5.00

Lab note: need pEC50 with A. baumannii PBP1a (Acinetobacter baumannii, UniProt A0ABX6CK30) for entry O=C(NCCCN1CCN(C(=O)NC(C(=O)N[C@H]2Cc3ccc(F)c(C(=O)O)c3OB2O)c2cc(F)c(O)c(O)c2Cl)C1=O)c1ccc(O)cc1 (stereo partly shown) , please look it up.
4.30 to 5.00

Lab note: need pEC50 with A. baumannii PBP1a (Acinetobacter baumannii, UniProt A0ABX6CK30) for entry O=C(O)c1c(F)ccc2c1OB(O)[C@@H](NC(=O)[C@H](NC(=O)N1CCN(C3CCN(C(=O)c4ccc(F)c(O)c4F)CC3)C1=O)c1cc(F)c(O)c(O)c1Cl)C2 (single isomer, unassigned) , please look it up.
> 5.00

Lab note: need pEC50 with A. baumannii PBP1a (Acinetobacter baumannii, UniProt A0ABX6CK30) for entry "O=C(NCCCN1CCN(C(=O)N[C@@H](C(=O)N[C@H]2Cc3ccc(F)c(C(=O)O)c3OB2O)c2cc(F)c(O)c(O)c2Cl)C1=O)Nc1ccc(O)cc1" , please look it up.
> 5.00

Lab note: need pEC50 with A. baumannii PBP1a (Acinetobacter baumannii, UniProt A0ABX6CK30) for entry CN(CCCN1CCN(C(=O)NC(C(=O)N[C@H]2Cc3ccc(F)c(C(=O)O)c3OB2O)c2cc(F)c(O)c(O)c2Cl)C(=O)C1=O)C(=O)c1cccc(O)c1 (stereo partly shown) , please look it up.
3.60 to 4.30

Lab note: need pEC50 with A. baumannii PBP1a (Acinetobacter baumannii, UniProt A0ABX6CK30) for entry O=C(O)c1c(F)ccc2c1OB(O)[C@@H](NC(=O)[C@H](NC(=O)N1CCN(C3CCN(Cc4cc(O)cc(F)c4)CC3)C1=O)c1cc(F)c(O)c(O)c1Cl)C2 (single isomer, unassigned) , please look it up.
> 5.00

Lab note: need pEC50 with A. baumannii PBP1a (Acinetobacter baumannii, UniProt A0ABX6CK30) for entry O=C(NCCCN1CCN(C(=O)NC(C(=O)N[C@H]2Cc3ccc(F)c(C(=O)O)c3OB2O)c2cc(F)c(O)c(O)c2Cl)C(=O)C1=O)c1cc(O)cc(F)c1 (stereo partly shown) , please look it up.
> 5.00
